Measurement Notes: Quantitative High-Throughput drug screen in 47 multiple myeloma cell lines against the NCATS MIPE library collection: U266_ATCC cell viability assay (AID 1919864); further: nearly all actives have a fitted effect of over 35% in size
Experimental Conditions: U266 myeloma viability, CellTiter-Glo ATP luminescence, 48 h; series mostly up to 45.8 µM
Results filed as inconclusive are left out. Active and inactive are the calls of the source. The call rests on the fitted dose curve; in most records, active means well fitted cell-killing curve with a large enough effect; inconclusive means small, poorly fitted or top-dose-only effect, or effect the other way; inactive means no such curve, though single readings can be large or run the other way.
Form entry, call: pick from y for active, n for inactive

Req: Just curious, what result did CC(=CCCC1=CCC(C2=CC(=O)OC2O)OC1O)CCC1=C(C)CCCC1(C)C (stereo unspecified) get here?
Resp: y

Req: Identify the outcome logged in this assay for the compound shown: C=C1C[C@H]2[C@H]3CCC(=O)[C@@]3(C)CC[C@@H]2[C@@]2(C)C=CC(=O)C=C12
Resp: y

Req: Just curious, what result did CC(C)(O)C(=O)Nc1ccc([N+](=O)[O-])c(C(F)(F)F)c1 get here?
Resp: y

Req: # fetch the recorded call for N#C[C@H](O[C@@H]1O[C@H](CO[C@@H]2O[C@H](CO)[C@H](O)[C@H](O)[C@H]2O)[C@H](O)[C@H](O)[C@H]1O)c1ccccc1 here
Resp: y

Req: Could you check what this test reported for NC1CC1c1ccccc1 (stereo unspecified) ?
Resp: n

Req: Which outcome was entered for the compound N=c1c2c(-c3ccccc3)c(-c3ccccc3)n(Cc3ccccc3)c2ncn1C1CCC(O)CC1 (stereo unspecified) in this test?
Resp: y

Req: Name the outcome recorded for CN(C)[C@@H]1C(=O)C(C(N)=O)=C(O)[C@@]2(O)C(=O)C3=C(O)c4c(O)cccc4[C@@](C)(O)[C@H]3[C@H](O)[C@@H]12 in the assay.
Resp: y

Where do the numbers come from? From PubChem BioAssay (NCATS).
